- measured on: InhA enzyme (Mycobacterium tuberculosis)
- Sequence (P9WGR1 whole entry, looked up): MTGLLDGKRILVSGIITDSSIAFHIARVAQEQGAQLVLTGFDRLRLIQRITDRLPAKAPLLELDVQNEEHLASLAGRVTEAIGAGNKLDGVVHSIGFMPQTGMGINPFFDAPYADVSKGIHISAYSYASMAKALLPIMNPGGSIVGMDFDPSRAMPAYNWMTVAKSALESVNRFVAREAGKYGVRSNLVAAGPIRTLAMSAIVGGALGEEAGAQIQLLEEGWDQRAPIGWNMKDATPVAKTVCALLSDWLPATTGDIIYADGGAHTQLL
- assay protocol: InhA enzyme inhibition assay
- Assay type: biochemical, M. tuberculosis
- condition set: read-out: % inhibition InhA at 50 μM of inhibitor
List of inhibition at 50 µM values.

{"sample smiles": "CC(C)c1ccc(C=CC(=O)c2ccc(-n3cccc3)cc2)cc1", "measured on": "InhA enzyme (Mycobacterium tuberculosis)", "qualifier sign": "=", "inhibition at 50 µM [%]": 36}
{"sample smiles": "CC(C)c1ccc(-c2cc(-c3ccc(-n4cccc4)cc3)nc(N)n2)cc1", "measured on": "InhA enzyme (Mycobacterium tuberculosis)", "qualifier sign": "=", "inhibition at 50 µM [%]": 10}
{"sample smiles": "Nc1nc(-c2ccc(-n3cccc3)cc2)cc(-c2ccc(Cl)cc2Cl)n1", "measured on": "InhA enzyme (Mycobacterium tuberculosis)", "qualifier sign": "<", "inhibition at 50 µM [%]": 5}
{"sample smiles": "COc1ccc(-c2cc(-c3ccc(-n4cccc4)cc3)nc(N)n2)cc1", "measured on": "InhA enzyme (Mycobacterium tuberculosis)", "qualifier sign": "=", "inhibition at 50 µM [%]": 36}
{"sample smiles": "COc1cccc(-c2cc(-c3ccc(-n4cccc4)cc3)nc(N)n2)c1O", "measured on": "InhA enzyme (Mycobacterium tuberculosis)", "qualifier sign": "<", "inhibition at 50 µM [%]": 5}
{"sample smiles": "O=C(C=Cc1cccs1)c1ccc(-n2cccc2)cc1", "measured on": "InhA enzyme (Mycobacterium tuberculosis)", "qualifier sign": "=", "inhibition at 50 µM [%]": 36}
{"sample smiles": "COc1ccc(-c2cc(-c3ccc(-n4cccc4)cc3)nc(N)n2)c(OC)c1", "measured on": "InhA enzyme (Mycobacterium tuberculosis)", "qualifier sign": "=", "inhibition at 50 µM [%]": 16}
